Where do the numbers come from? From the RNAGym collection of RNA variant scans (doi:10.7554/elife.90254).

B1: LINE1-full (parent)
chain: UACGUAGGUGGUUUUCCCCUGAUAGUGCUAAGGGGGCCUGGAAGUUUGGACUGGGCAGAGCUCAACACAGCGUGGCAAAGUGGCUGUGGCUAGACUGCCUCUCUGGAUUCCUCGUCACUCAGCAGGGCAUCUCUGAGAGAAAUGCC

Variants of: B1
assay_comment: self-cleavage, relative activity (ratio to wild type); higher = more cleavage; in vitro, sequencing; the parent is a self-cleaving ribozyme
Returns 1 (yes) if the recorded self-cleavage is greater than or equal to 0.5, and 0 (no) otherwise.

Please review the entries below; each comes with its answer.
UACGUAGGUGGUUUUCCCCUGAUAGUGCUAAGGGGGCCUGGAAGUCUGGACUGGGCAGAGCUCAACACAGCGUGGCAAAGUGGCUGUGGCUAGACUGCCUCUCUGGAUUCCUCGUCACUCAGCAGGGCAUCUCUGAGAGAGAUGCC [U46C A141G]	1 (yes)
UACGUAGGUGGUUUUCCCCUGAUAGUGCUAAGGGGGCCUGGAAGUUUGGACUGGGCAGAGCUCAACACAGCGUGGCAAAGUGGCUGUGGCUAGACUGCCUCCCUGGAUUCCUCGUCACUCAGCAGAGCAUCUCUGAGAGAAAUGCC [U102C G126A]	1 (yes)

Input line: Would you say UACGUAGGUGGUUUUCCCCUGAUAGUGCUAAGGGGGCCUGGAAGUUUGGACUGGGCAGAGCUCAACACAGCGUGGCAAAGUGGCUGUGGCUAGAUUGCCUCUCUGGACUCCUCGUCACUCAGCAGGGCAUCUCUGAGAGAAAUGCC [C95U U108C] shows self-cleavage at minimum 0.5?
Output line: 0 (no)

Input line: Would you say UACGUAGGUGGUUUUCCCCUGAUAGUGCUAAGGGGGCCUGGAAGUUUGGACUGGGCAGAGCACAACACAGCGUGGCAAAGUGGCUGUGGCUAGACUGCCUCUCUGGAUUCCUCGUCACUCAGCAGGGCAUUUCUGAGAGAAAUGCC [U62A C131U] shows self-cleavage at minimum 0.5?
Output line: 0 (no)

Input line: Would you say UACGUAGGUGGUUUUCCCCUGAUAGUGUUAAGGGGGCCUGGAAGUUUGGACUGGGCAGAGCUCGACACAGCGUGGCAAAGUGGCUGUGGCUAGACUGCCUCUCUGGAUUCCUCGUCACUCAGCAGGGCAUCUCUGAGAGAAAUGCC [C28U A64G] shows self-cleavage at minimum 0.5?
Output line: 0 (no)

Input line: Would you say UACGUAGGUGGUUUUCCCCUGAUUGUGCUAAGGGGGCCUGGAAGUUUGGACUGGGCAGAGCUCAACACGGCGUGGCAAAGUGGCUGUGGCUAGACUGCCUCUCUGGAUUCCUCGUCACUCAGCAGGGCAUCUCUGAGAGAAAUGCC [A24U A69G] shows self-cleavage at minimum 0.5?
Output line: 1 (yes)

Input line: Would you say UACGUAGGUGGUUUUCCCCUGAUAGUGCUAAGGGGGCCUGGGAGUUUGGACUGGACAGAGCUCAACACAGCGUGGCAAAGUGGCUGUGGCUAGACUGCCUCUCUGGAUUCCUCGUCACUCAGCAGGGCAUCUCUGAGAGAAAUGCC [A42G G55A] shows self-cleavage at minimum 0.5?
Output line: 0 (no)

Input line: Would you say UACGUAGGUGGUUUUCCCCUGAUAGUGCUAAGGUGGCCUGGAAGUUUGGACUGGGCAGAGCUCAACGCAGCGUGGCAAAGUGGCUGUGGCUAGACUGCCUCUCUGGAUUCCUCGUCACUCAGCAGGGCAUCUCUGAGAGAAAUGCC [G34U A67G] shows self-cleavage at minimum 0.5?
Output line: 1 (yes)

Input line: Would you say UACGUAGGUGGUUUUCCCCUGAUAGAGCUAAGGGGGCCUGGAAGUUUGGACUGGGCAGAGCUCAACACAGCGUGGCAAAGUGGCUGUGGCUAGACUGCCUCUCUGGAUUCCUCGUCACUCAGCAGGGCAUCUUUGAGAGAAAUGCC [U26A C133U] shows self-cleavage at minimum 0.5?
Output line: 1 (yes)

Input line: Would you say UACGUAGGUGGUUUUCCCCUGAUUGUGCUAAGGGGGCCUGGAAGUUUGGACUGGGCAGAGCUCAACACAGCGUGGCAAAGUGGCUGUGGCUGGACUGCCUCUCUGGAUUCCUCGUCACUCAGCAGGGCAUCUCUGAGAGAAAUGCC [A24U A92G] shows self-cleavage at minimum 0.5?
Output line: 0 (no)

Input line: Would you say UACGUAGCUGGUUUUCCCCUGAUAGUGCUAAGGGGGCCUGGAAGUUUGGGCUGGGCAGAGCUCAACACAGCGUGGCAAAGUGGCUGUGGCUAGACUGCCUCUCUGGAUUCCUCGUCACUCAGCAGGGCAUCUCUGAGAGAAAUGCC [G8C A50G] shows self-cleavage at minimum 0.5?
Output line: 1 (yes)
